targetOfAssay: Gal(b1-4)GlcNAc(b1-3)Gal(b1-4)GlcNAc(b1-6)[Gal(b1-3)]GalNAc
methodDescription: glycan array binding signal (z-score within array); higher = stronger binding
settings: glycan notation: IUPAC condensed, linker removed
Only a selection was taken, and the strongest signals are over-represented in it overall.

| binder | glycan array binding signal (z-score) |
| --- | --- |
| Aap arpt (Staphylococcus epidermidis) (protein) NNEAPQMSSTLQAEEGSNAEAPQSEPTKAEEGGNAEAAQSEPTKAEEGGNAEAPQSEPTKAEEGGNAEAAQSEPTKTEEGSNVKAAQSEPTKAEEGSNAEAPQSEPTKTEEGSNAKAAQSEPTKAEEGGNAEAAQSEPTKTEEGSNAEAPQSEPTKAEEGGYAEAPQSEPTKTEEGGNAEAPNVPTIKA | 2.97 |
| HBHA-Rv (Mycobacterium tuberculosum), P0A5P6 (protein) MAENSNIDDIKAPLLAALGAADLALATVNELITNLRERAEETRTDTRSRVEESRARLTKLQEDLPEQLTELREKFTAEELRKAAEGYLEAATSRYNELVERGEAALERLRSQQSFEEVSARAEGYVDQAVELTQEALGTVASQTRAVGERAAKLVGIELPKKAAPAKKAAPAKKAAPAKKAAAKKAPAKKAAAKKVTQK | -0.399 |
